TARGET OR SYSTEM: T1, human IL-2Rβ (human, UniProt P14784 27-240, limits assumed)
T1 construct: recombinant protein, coated or immobilised; also called hu IL-2R; IL-2R beta
T1 sequence: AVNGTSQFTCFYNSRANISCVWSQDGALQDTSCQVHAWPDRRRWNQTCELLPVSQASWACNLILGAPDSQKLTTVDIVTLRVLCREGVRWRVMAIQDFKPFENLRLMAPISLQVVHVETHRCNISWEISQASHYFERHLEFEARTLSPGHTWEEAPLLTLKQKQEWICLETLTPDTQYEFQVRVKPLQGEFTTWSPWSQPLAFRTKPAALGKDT
PROTOCOL DESCRIPTION: SPR, P.E. off-rate
Recorded measurements of koff, one per entry
// units = s⁻¹; emit number, no label

Sample records with koff:
INSERT INTO assay_data (binder, result_type, value) VALUES
  ('FJ1427_P035MP02C02 (VHH, soluble VHH in periplasmic extract; also called clone nr) VHH: QVQLVESGGGLVQPGGSLRLSCAASGSRFVSDFMGWYRQVPGKQRELVADMADGGSARYGDSVKGRFTILRDNMNSTAFLQMSSLKPEDTGVYYCKAGLWIAGRHFDYWGQGTQVTVSS', 'koff', 0.00057),
  ('FJ1427_P035MP02G01 (VHH, soluble VHH in periplasmic extract; also called clone nr) VHH: QVQLVESGGGLVQTGGSLRLSCAVSGSRFISDVMGWYRQVPGKQRELVADMADGGSAKYADSVKGRFSILRDSAKNTVYLQMSSLKPEDTGIYYCKAGLWIAGRHSDYWGQGTQVTVSS', 'koff', 0.000368),
  ('FJ1427_P035MP06A07 (VHH, soluble VHH in periplasmic extract; also called 26-MP06A07; clone nr) VHH: QVQLQESGGGLVQAGGSLRLSCAASGDVFVRYTMAWFRQAPGKEREFVASVTDSGRTTEYVDSVKGRFTVSRDNAKNTAYLQMNNLKPEDTAIYYCAANTDYFQIRSLDLNTWGQGTQVTVSS', 'koff', 0.000363),
  ('FJ1427_P035MP03F12 (VHH, soluble VHH in periplasmic extract; also called 22-MP03F12; clone nr) VHH: EVQLVESGGGLVQAGGSLRLSCAASGSIFSINAMAWFRQVPGMERELVAAISRDGGASVYRDSVKGRFTISRDNSKNTVYLQMNTLKPEDTAIYVCAATRAIGWTARWITTDFDFWGQGTQVTVSS', 'koff', 0.000419),
  ('FJ1427_P035MP02C09 (VHH, soluble VHH in periplasmic extract; also called 17-MP02C09; clone nr) VHH: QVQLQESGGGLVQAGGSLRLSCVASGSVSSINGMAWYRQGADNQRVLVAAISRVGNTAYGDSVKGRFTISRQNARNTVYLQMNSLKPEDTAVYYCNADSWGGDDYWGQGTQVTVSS', 'koff', 0.000848),
  ('FJ1427_P035MP02F05 (VHH, soluble VHH in periplasmic extract; also called clone nr) VHH: EVQLVESGGGLVQTGGSLRLSCAVSGSRFISDVMGWYRQVPGKQRELVADMADGGSAKYADSVKGRFSILRDSVKNTVYLQMSSLKPEDTGIYYCKAGLWIAGRHSDYWGQGTQVTVSS', 'koff', 0.000334),
  ('FJ1427_P035MP02A01 (VHH, soluble VHH in periplasmic extract; also called clone nr; 97) VHH: QVQLVESGGGLVQTGGSLRLSCVVSGSHFISDVMGWYRQVPGKQRELVADMADGGSAKYGDSVKGRFTILRDSVKNTVYLQMSSLNPEDTGVYYCKAGLWITGRHSDYWGQGTQVTVSS', 'koff', 0.00023),
  ('FJ1427 P035MP02A04 (VHH, soluble VHH in periplasmic extract; also called clone nr) VHH: EVQLVESGGGLVQTGGSLRLSCTASGSQFINDVMGWYRQVPGKQRELVADMDDTGSTKYADSVNGRFTILRDSVKNTAYLQMSNLKPEDTGVYYCKAGLWIKGRHSDYWGQGTQVTVSS', 'koff', 0.000368);

Input FJ1427 P035MP02H05 (VHH, soluble VHH in periplasmic extract; also called clone nr) VHH: EVQLVESGGGSVQTGGSLRLSCVVSGSHFISDVMGWYRQVPGKQRELVADMADGGSAKYGDSVKGRFTILRDSVKNTVTLQMSSLNPEDTGVYYCKAGLWITGRHSDYWGQGTQVTVTS , output reported koff.
0.000268

Return value of koff for input FJ1427_P035MP03F08 (VHH, soluble VHH in periplasmic extract; also called 19-MP03F08; clone nr) VHH: EVQLVESGGGLVQTGGSLRLSCAASGGTFSRDAMAWFRQVPGKEREFVALISWSGATTNYADSVKGRFAISRDNGKNTVYLQMNRLKPADTAIYYCAADRRPMGSRSYFEPTEYDDWGQGTQVTVSS , no commentary.
0.000296

Look up koff of FJ1427_P035MP02A06 (VHH, soluble VHH in periplasmic extract; also called clone nr) VHH: QVQLQESGGGLVQAGGSLRLSCAASGGTFSSYAMGWFRQAPGKEREFVAATTRGGGRTMYAVSTEGRFTCSRDNDKNTVYLLMNSLKPKDTAVYYCAAMTSYYSGTYYPDSSDFDIWGQGTQVTVSS and report it.
0.000484

Return the recorded koff value; entry: FJ1427_P035MP02E01 (VHH, soluble VHH in periplasmic extract; also called clone nr) VHH: EVQLVESGGGLVQIGGSLRLSCAASGRTFSSITMAYFRQVPGKEREWVAGINFSGTRTFYADSVKGRFLISRDDAKSTMYLQMNSLKPEDTAVYYCAASPRGFYGPGNALYDYWGQGTQVTVSS
4.5e-05

Supply reported koff belonging to this binder: FJ1427 P035MP02C11 (VHH, soluble VHH in periplasmic extract; also called clone nr) VHH: QVQLVESGGGLVQAGGSLRLSCAVSGDVFVRYTMAWFRQAPGKEREFVASVTDSGRTTEYVDSVKGRFTVSRDNAKNTVYLQMNSLKPEDTAVYYCAANTDYFQIRSLRANTWGQGTQVTVSS
0.000433

Respond only with koff recorded for FJ1427_P035MP02D07 (VHH, soluble VHH in periplasmic extract; also called clone nr) VHH: EVQLVESGGGLVQAGGSLRLSCAASGRSLSTTEMGWFRQAPGKEREFVAAITWSGRGTMYAESVEGRFAVSRENAKNTVYLQMNSLKPEDTAIYYCAAARRGRAAVRSEGGYDFWGQGTQVTVSS
0.000982

Specify reported koff for the binder shown: FJ1427_P035MP02G04 (VHH, soluble VHH in periplasmic extract; also called clone nr) VHH: QVQLVESGGGLVQAGGSLRLSCAASGSQFINDVMGWYRQVPGKQRELVADMDDTGSTKYADSVKGRFTILRDSVKNTAYLQMSNLKPEDTGVYYCKAGLWIKGRHFDYWGQGTQVTVSS
0.000295

From: patent US20240409645A1
